testedTarget: mGlu7 (Homo sapiens, UniProt Q14831)
Sequence (Q14831 35-915): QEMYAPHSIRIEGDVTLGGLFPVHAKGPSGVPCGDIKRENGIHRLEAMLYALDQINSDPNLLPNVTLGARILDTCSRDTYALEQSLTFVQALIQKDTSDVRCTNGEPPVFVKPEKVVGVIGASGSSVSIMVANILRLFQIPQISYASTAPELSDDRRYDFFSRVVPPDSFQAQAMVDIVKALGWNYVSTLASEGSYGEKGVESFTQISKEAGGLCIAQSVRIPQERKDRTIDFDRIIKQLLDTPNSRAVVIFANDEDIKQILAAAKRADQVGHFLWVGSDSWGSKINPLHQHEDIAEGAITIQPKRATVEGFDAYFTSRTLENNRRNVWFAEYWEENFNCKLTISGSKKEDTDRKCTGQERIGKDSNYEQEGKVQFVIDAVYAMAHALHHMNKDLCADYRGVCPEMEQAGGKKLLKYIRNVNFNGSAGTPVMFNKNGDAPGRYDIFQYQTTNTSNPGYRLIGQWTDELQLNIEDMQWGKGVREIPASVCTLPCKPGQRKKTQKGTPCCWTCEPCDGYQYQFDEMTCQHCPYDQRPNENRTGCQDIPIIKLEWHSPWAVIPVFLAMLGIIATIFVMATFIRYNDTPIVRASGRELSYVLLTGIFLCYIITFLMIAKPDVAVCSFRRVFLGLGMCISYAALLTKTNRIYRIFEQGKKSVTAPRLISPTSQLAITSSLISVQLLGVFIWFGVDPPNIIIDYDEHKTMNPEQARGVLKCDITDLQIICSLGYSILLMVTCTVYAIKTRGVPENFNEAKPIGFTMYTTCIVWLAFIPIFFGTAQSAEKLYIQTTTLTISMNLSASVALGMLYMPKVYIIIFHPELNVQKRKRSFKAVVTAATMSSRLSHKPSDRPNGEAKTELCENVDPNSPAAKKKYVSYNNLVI
experimentalDetails: Agonist activity on group III receptor mGlu7
conditionLabel: read-out: EC50 mGlu7; Table 1
measuredAttribute: EC50

Fill in: mGlu7 (Homo sapiens, UniProt Q14831) EC50 for N[C@H](CCP(=O)(O)CCC(=O)O)C(=O)O [(3R)-PCEP, reference compound] = > 1000 µM

* * *

testedTarget: rat mGlu4 (Rattus norvegicus)
Construct: expressed in transfected cells; host or cells: HEK293
experimentalDetails: Agonist activity, [3H]phosphatidylinositol accumulation in HEK293 cells transfected with rat mGlu4 and Gqi9
Format: cell-based
conditionLabel: Table 2; n in brackets; read-out: mGlu4 EC50 μM (n)
The molecules listed here are annotated with their EC50.
Reply with just the number (in µM).

Please review the entries below; each comes with its answer.
{"molecule": "N[C@@H](CCP(=O)(O)C(O)c1ccc(F)c([N+](=O)[O-])c1)C(=O)O (stereo partly shown)", "assayValue": 1.02}
{"molecule": "N[C@@H](CCP(=O)(O)C(O)c1cccc([N+](=O)[O-])c1O)C(=O)O (stereo partly shown)", "assayValue": 15.2}

Fill in: rat mGlu4 (Rattus norvegicus) EC50 for N[C@@H](CCP(=O)(O)C(O)c1ccc(C(F)(F)F)o1)C(=O)O (stereo partly shown) = 1.98

Fill in: rat mGlu4 (Rattus norvegicus) EC50 for N[C@@H](CCP(=O)(O)C(O)C1CC1C(=O)O)C(=O)O (single isomer, unassigned) [CS159] = 12.9

* * *

testedTarget: rat mGlu4 (Rattus norvegicus, UniProt P31423)
Construct: expressed in transfected cells; host or cells: HEK293
Sequence (P31423 33-912): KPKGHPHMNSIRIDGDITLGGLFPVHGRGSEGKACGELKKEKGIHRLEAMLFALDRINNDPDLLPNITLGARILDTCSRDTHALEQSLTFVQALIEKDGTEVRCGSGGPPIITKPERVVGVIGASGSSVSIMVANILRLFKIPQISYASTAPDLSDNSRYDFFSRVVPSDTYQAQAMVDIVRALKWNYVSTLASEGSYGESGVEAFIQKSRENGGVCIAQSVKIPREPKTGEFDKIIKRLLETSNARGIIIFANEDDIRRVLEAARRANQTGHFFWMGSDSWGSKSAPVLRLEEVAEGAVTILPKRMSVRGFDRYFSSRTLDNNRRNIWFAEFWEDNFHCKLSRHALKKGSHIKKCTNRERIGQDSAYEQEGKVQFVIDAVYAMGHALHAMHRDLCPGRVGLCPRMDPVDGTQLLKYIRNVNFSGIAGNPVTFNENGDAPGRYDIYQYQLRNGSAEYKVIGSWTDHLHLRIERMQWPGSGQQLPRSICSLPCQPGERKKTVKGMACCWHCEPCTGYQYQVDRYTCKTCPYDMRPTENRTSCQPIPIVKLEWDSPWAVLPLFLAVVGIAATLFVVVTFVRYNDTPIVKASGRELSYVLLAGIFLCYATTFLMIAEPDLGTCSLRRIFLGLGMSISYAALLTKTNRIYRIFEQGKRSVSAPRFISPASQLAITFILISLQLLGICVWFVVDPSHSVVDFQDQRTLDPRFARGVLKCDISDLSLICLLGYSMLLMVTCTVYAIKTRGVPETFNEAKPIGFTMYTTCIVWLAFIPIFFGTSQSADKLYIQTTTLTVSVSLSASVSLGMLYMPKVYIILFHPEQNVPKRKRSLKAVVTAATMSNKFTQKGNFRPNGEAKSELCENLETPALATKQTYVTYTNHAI
experimentalDetails: Agonist activity, [3H]phosphatidylinositol accumulation in HEK293 cells transfected with rat mGlu4 and Gqi9
Format: cell-based
conditionLabel: Table 2; n in brackets; read-out: mGlu4 EC50 μM (n)
Could you please mark condition met for values of EC50 below 2 µM and condition not met for values at or above it?

{"compound": "Cc1ccc(C(O)P(=O)(O)CC[C@H](N)C(=O)O)cc1[N+](=O)[O-] (some centres unmarked)", "category": "condition met"}
{"compound": "N[C@@H](CCP(=O)(O)C(O)c1ccc(C(F)(F)F)c([N+](=O)[O-])c1)C(=O)O (some centres unmarked)", "category": "condition met"}
{"compound": "N[C@@H](CCP(=O)(O)C(O)c1ccc([N+](=O)[O-])cc1)C(=O)O (some centres unmarked)", "category": "condition met"}
{"compound": "N[C@@H](CCP(=O)(O)C(O)c1cc([N+](=O)[O-])cc([N+](=O)[O-])c1O)C(=O)O (some centres unmarked)", "category": "condition not met"}
{"compound": "NC(CCP(=O)(O)CCC(=O)O)C(=O)O (racemic)", "category": "condition not met"}

Data request: Please let me know if N[C@@H](CCP(=O)(O)C1COC(=O)C1)C(=O)O (some centres unmarked) shows EC50 below 2 µM.
Data returned: condition not met

Data request: Please let me know if N[C@@H](CCP(=O)(O)C(O)c1c(F)c(F)c(F)c(F)c1F)C(=O)O (some centres unmarked) shows EC50 below 2 µM.
Data returned: condition not met

* * *

testedTarget: rat mGlu4 (Rattus norvegicus)
Construct: expressed in transfected cells; host or cells: HEK293
experimentalDetails: Agonist activity, [3H]phosphatidylinositol accumulation in HEK293 cells transfected with rat mGlu4 and Gqi9
Assay type: cell-based
conditionLabel: at 100 μM
The compounds listed here are annotated with their mGlu4 % max at 100 μM.

Please review the entries below; each comes with its answer.
{"compound": "N[C@@H](CCP(=O)(O)C(CC(=O)O)CC(=O)O)C(=O)O", "measuredAttribute": "mGlu4 % max at 100 μM", "assayValue": "10% max at 100 μM (1)"}
{"compound": "N[C@@H](CCP(=O)(O)CCP(=O)(O)O)C(=O)O", "measuredAttribute": "mGlu4 % max at 100 μM", "assayValue": "40% max at 100 μM (1)"}
{"compound": "N[C@@H](CCP(=O)(O)Cc1cccc(C(=O)O)c1)C(=O)O", "measuredAttribute": "mGlu4 % max at 100 μM", "assayValue": "33% max at 100 μM (1)"}

Form: compound = N[C@@H](CCP(=O)(O)C(CC(=O)O)C(F)(F)F)C(=O)O (stereo partly drawn) ; mGlu4 % max at 100 μM = 60% max at 100 μM (1)

Form: compound = "N[C@@H](CCP(=O)(O)CCCC(=O)O)C(=O)O" ; mGlu4 % max at 100 μM = 80% max at 100 μM (1)

Form: compound = N[C@@H](CCP(=O)(O)C(CC(=O)O)CP(=O)(O)O)C(=O)O (stereo partly drawn) ; mGlu4 % max at 100 μM = 33% max at 100 μM (1)
